System: K4 kissing-loop RNA reporter;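 note: bound reporter read as fluorescence of individual clusters on recovered sequencing chips by microscopy, with normalized cluster intensities fitted with a binding model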
Assay: apparent KD of K4 kissing-loop reporter; higher = weaker reporter binding
Details: Eterna round: R107; input ligand: FMN 200 uM
Label fulfilled when apparent KD of K4 kissing-loop reporter is at or above 200 nM; anything below gets not fulfilled.

Prompt: Could you tell me if the measured apparent KD of K4 kissing-loop reporter of UGUCAUUGGUCGGCCGCCACUUCAAGGUCAAAGACCAGAGUGAUGUUCUUGCACAAAGUGCUUAGAAGGACCGGGACCGAUGACU [TrypBS 13 #SwitchBubble #K4Middle] reaches 200 nM or more?
Completion: fulfilled

Prompt: Item `UGGAGUUGACGAAAAGUCAACUCCCGAGAAGGAGCGGACGAAAGUCCAGGUAGGUCGCUCGCUACCAGUGAUGUUGGUACGUAAA` with apparent KD of K4 kissing-loop reporter of 200 nM or above?
Completion: not fulfilled

Prompt: Kindly determine if apparent KD of K4 kissing-loop reporter recorded for AAAUUUAAUAUAUUUAAUUAAUUAUGUGAUACCAGACAUUAAUAAGUCCCUUGGCAGCACAAUGCAGUGAUGUUGCAUAUAAUAA [JR_SSTheophyA_Sub011] is above or exactly 200 nM.
Completion: not fulfilled

Prompt: Please indicate if the recorded apparent KD of K4 kissing-loop reporter for AGGCACGAGCAAGGAUAUCGAGUAGAGUGAUGUUCUGCCUGGGUUGGCCCGAAAGGGCCUUCCCAGCGAGAAGGUGCUCGUGCCU [#2 Same State - FMN A Attempt #9 (HarryS)] meets or exceeds 200 nM.
Completion: fulfilled

Prompt: # check: apparent KD of K4 kissing-loop reporter of AACAAGGGAUGUCAGUGAUGUUGUACGUCGCGAGGACCGGUACGGCCGCCACUCGUAAUACACAGAUGAGGGUUCUUUCUCUGAU [theeternabot_sameState_KL_Trp_A_49] is greater than or equal to 200 nM
Completion: fulfilled

Prompt: Is the recorded value of apparent KD of K4 kissing-loop reporter equal to or greater than 200 nM for this sequence? AAUUAAUACAGAAGGAGCGUGUUUUUUAAUUUAUUUUCAUGAUCGAGUGAUGUUCGAUAUACACAGGUAGGUCGCUGUAUAUUUA [JR_SSArginiB_Sub008]
Completion: not fulfilled

* * *

Test system: MS2 coat protein
Test: apparent KD of MS2 coat protein; designed switch direction (-1 OFF switch, 1 ON switch): -1; higher = weaker reporter binding
Details: input ligand: none
readoutLabel: apparent KD of MS2 coat protein (nM)
Numeric only. Scale: nM

Prompt: Would you kindly share the measured apparent KD of MS2 coat protein for ACCUAUGAGGAGGAUAUACGGUGCGAAAGGAAGGUAGAAGGCUUCACAUGAGGAUCACCCAUGUCGAUAAGCGA [EX6 #85] (Eterna round: R97, puzzle: Exclusion 6) ?
Completion: 23.3

Prompt: Suppose we examine the sequence CAGCUGAAAGUCAGGAUAUCUAGAGCGAUAGCUCUAGAGAAGGGACAUGAGGAUCACCCAUGUGGUCACAGCUG [BmEx4/5-A4] (Eterna round: R97, puzzle: Brourd's mod of Exclusion 4) ; what apparent KD of MS2 coat protein value has been reported?
Completion: 648

Prompt: Endpoint output: apparent KD of MS2 coat protein of ACGACUGGAGGAUAUGCUCUGGGAGCGAUCGUAUAAGCAGUACUUGAGGAUCACCCAAGUAGAAGGUCAGCUCG [Riorus] (Eterna round: R97, puzzle: Exclusion 2) . Value?
Completion: 37.6

Prompt: Reported apparent KD of MS2 coat protein, sequence GCUGGACGAGGAUAUACAUGAGGAUCACCCAUGUGAUCAGCAGUCCUCGGACUGCAAUGUAGAAGGUGUCCAGC [E3/1-B2] (Eterna round: R97, puzzle: Exclusion 3) : ____
Completion: 2320

Prompt: Field request: apparent KD of MS2 coat protein | item: CUAGCGGGUGUAGGAUAUCGGACUGUUUCAGUCUGAGAAGGACAUGAGGAUCACCCAUGUAUUGCUGCGUGAGUAGCACGCUAG [JL ENG1 3.98] (Eterna round: R96, puzzle: Exclusion NG 1)
Completion: 34.1

* * *

System: MS2 coat protein
Experiment: apparent KD of MS2 coat protein; designed switch direction (-1 OFF switch, 1 ON switch): -1; higher = weaker reporter binding
Settings: Eterna round: R95; input ligand: microRNA oligo, concentration not stated
# apparent KD of MS2 coat protein >= 50 nM gives yes, anything below gives no

Prompt: Item CUUAGACAUGAGGAUCACCCAUGUCAGGAUAUCGUCUACCUGUGGAAACACAGGUAGACGAGAAGGGAUGUGUU [SS1 Omei 3] (puzzle: Exclusion 1) with apparent KD of MS2 coat protein of 50 nM or above?
Completion: no

Prompt: Evaluate AGUUGGCGAGGAUAUACAUGAGGAUCACCCAUGUGAGAGAUACUAGUGAGGUCGAUUGGUAGAAGGCGCUGACA [Mat - Exclusion 3 - Mod of JL D80] (puzzle: Exclusion 3) : apparent KD of MS2 coat protein at minimum 50 nM?
Completion: yes

Prompt: In plain terms: is recorded apparent KD of MS2 coat protein at least 50 nM for UUUUAACAUGAGGAUCACCCAUGUGAGGAUAUGAUUUUUUUUUUUUUUUUUUUUUUUUUCAGAAGGCACAUUUU [My solution] (puzzle: Exclusion 1) ?
Completion: yes

Prompt: Is reported apparent KD of MS2 coat protein greater than or equal to 50 nM here: CGUAGUCUUCGGACUACGAACAUGAGGAUCACCCAUGUAUAGAGCAGAUCUUCAUGCAAGCUUUUUGCUCGUCUUAU [Sensor v3 - turn-off variant 1 - 48] (puzzle: Sensor v3, turn-off variant 1)
Completion: no

Prompt: Test whether the sequence GAUUAUGCGAGCUUUAGGGACAUGAGGAUCACCCAUGUUCGUCUUAUUAGUCUGGGUACACUAACAUACCUAAAUCU [JMF 21] (puzzle: Sensor v3, turn-off variant 1) records apparent KD of MS2 coat protein of 50 nM or higher.
Completion: no

Prompt: Textbook exercise: given the entry ACGUCCCAAGUCAGGAUAUAGGCCGGACAAAGGGACUAGAAGGGACAUGAGGAUCACCCAUGUGGGCAAAAGAC [Terarace] (puzzle: Brourd's mod of Exclusion 4) , state whether its apparent KD of MS2 coat protein is greater than or equal to 50 nM.
Completion: no

Prompt: Confirm if apparent KD of MS2 coat protein reported for the sequence AAAAAACAAGGAUAUACGAAGGAGGGUUAUCUUAAUUUUUGACAUGAGGAUCACCCAUGUAGAAGGUGUUAAAA [JR_Exclusion2_Sub011] (puzzle: Exclusion 2) is 50 nM or above.
Completion: yes

Prompt: Say whether AGAAAUGCCCAUGGCCACAAGCUUUUCGCUUGUCUUACUACAUGAGGAUCACCCAUGUAACAUGGGCUCCUGAUAAU [Resoriraqu] (puzzle: Sensor v3, turn-off variant 2) shows apparent KD of MS2 coat protein of 50 nM or more.
Completion: no

Prompt: Hi team, for CUGAGGUAGCGGUCCUAUGACAUGAGGAUCACCCAUGUACCUUGCUACGAGCUUUUUGCUCGUCUUAUAAUUCUCGG [JL Atriat mod 3] (puzzle: Sensor v3, turn-off variant 1) , is the recorded apparent KD of MS2 coat protein at or above 50 nM?
Completion: yes

* * *

Test system: MS2 coat protein
Test: apparent KD of MS2 coat protein; higher = weaker reporter binding
Conditions: Eterna round: R107; input ligand: none
readoutLabel: apparent KD of MS2 coat protein (µM)
Numbers only; they are read as µM.

Prompt: I am curious: what apparent KD of MS2 coat protein value has been reported for AUAACAUGAGGAUCACCCAUGUAAGCUGAAGGAGCGGACGAAAGUCCAGGUAGGUCGCAGCGCUCCUUCUGGUGAUCUGAAGGAG [(M1)-(M2)-(Arg1)-(Arg2)-(A)'-(M)'-(A)''_Design3] ?
Completion: 0.151

Prompt: Could you tell me which apparent KD of MS2 coat protein is on file for `UGGUACAUGGCGGCCGCCACUUCACGUAAAAUAAAAGCUUGAGGAUCACCCAAGUAAUAAGUUGGGAGGACCGGGUCAUGUACCU` ?
Completion: 0.0198

Prompt: Endpoint output: apparent KD of MS2 coat protein of CGGUCGGUCGGCCGGUGAUUAUGGGAUGAAGGAGCGUGGGAAGCUACAGGUAGGUCGCAUCCGAAAGAUGAGGAUCACCCAUCUU [SSArg A #24Alt-Ms2 Mod] . Value?
Completion: 0.0303

Prompt: GET /values?readout=apparent KD of MS2 coat protein&item= AAGACAUGAGGAUCACCCAUGUCGUCAACACGAGGACCGGUACGGCCGCCACUCGCAUGCCAAUGAGCGCAUGCGGCCUGGGUAU [Exclusion Tryp A GF4]
Completion: 0.0148

Prompt: So what's the measured apparent KD of MS2 coat protein for this one? GGGCCCGGGCCGCGCGCGGCCCGGGCCCAACGAGGACCGGUACGGCCGCCACUCGAACGAGUGGGUACAUGAGGAUCACCCAUGU [Aaa]
Completion: 0.027

Prompt: I am curious: what apparent KD of MS2 coat protein value has been reported for GAGAGUGUGUGCGAAAGCACAGAUCUGGAAGGAGCGUAGAAAGAUACAGGUAGGUCGCCGGGACAUGAGGAUCACCCAUGUGUAU [ArgiA-ms2@63] ?
Completion: 0.0377
